Data origin, for the record: PubChem BioAssay (NCI)

Test system: 786-0 renal
protocol text: NCI tumour cell line growth inhibition, 48 h
Listed next: entries and their corresponding GI50.

Fill in: GI50 of `CCCN1CCN(c2ccc3nc(-c4ccc5nc(-c6ccc(OCC)c(OCC)c6)[nH]c5c4)[nH]c3c2)CC1` is ___
986 nM

Cool, now `O=CC1(C2(C=O)c3ccccc3-c3ccccc32)c2ccccc2-c2ccccc21`
2160 nM

Cool, now `COc1cc2c3c(n(CCCCl)c(=O)c2cc1OC)-c1ccc(C#N)cc1C3=O`
14400 nM

---

Test system: HS 578T breast
protocol text: NCI tumour cell line growth inhibition, 48 h
Listed next: entries and their corresponding TGI.
Output spec: scalar in µM, unitless text.

- COc1cc2c3c(n(CCCCl)c(=O)c2cc1OC)-c1ccc(C#N)cc1C3=O: 21.9

Fill in: TGI of `C/C(=N\Nc1nc2ccccc2o1)c1ccncn1` is ___
27.1

Cool, now CCCCCC(/C=N/N)C(O)(C(F)(F)F)C(F)(F)F (centres undefined)
7.12

Cool, now `CC(C)[C@@H]1CC[C@@H]2[C@@H]1[C@H](OC(=O)/C=C/c1ccccc1)[C@]1(C(C)C)C[C@@H](OC(=O)CO)[C@@]2(C)O1`
0.0136
